Data origin: patent US20140309210A1

# target: purified ITK (Invitrogen PV3875) (Homo sapiens, UniProt Q08881)
# Construct: purchased Invitrogen PV3875
# Sequence (Q08881 whole entry): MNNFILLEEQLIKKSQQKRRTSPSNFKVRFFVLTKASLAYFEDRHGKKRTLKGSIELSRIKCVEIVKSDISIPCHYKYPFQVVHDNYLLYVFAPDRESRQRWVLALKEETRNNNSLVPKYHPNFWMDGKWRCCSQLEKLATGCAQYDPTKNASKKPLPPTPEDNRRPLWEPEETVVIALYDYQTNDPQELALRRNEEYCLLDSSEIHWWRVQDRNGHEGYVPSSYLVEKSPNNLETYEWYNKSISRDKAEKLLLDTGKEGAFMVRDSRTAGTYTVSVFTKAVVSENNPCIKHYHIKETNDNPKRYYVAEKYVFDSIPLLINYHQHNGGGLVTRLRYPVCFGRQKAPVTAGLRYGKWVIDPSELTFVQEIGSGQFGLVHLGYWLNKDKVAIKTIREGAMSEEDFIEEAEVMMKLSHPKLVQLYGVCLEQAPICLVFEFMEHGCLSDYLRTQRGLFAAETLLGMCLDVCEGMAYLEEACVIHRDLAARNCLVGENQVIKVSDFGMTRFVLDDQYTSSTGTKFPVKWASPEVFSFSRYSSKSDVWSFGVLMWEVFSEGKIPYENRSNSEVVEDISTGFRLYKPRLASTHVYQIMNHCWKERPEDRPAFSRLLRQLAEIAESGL
# assayText: ITK peptide phosphorylation assay (Caliper LabChip or LCMS)
# Assay type: biochemical
# testContext: Table 1, Examples 141-279
Measured Ki values are reported for all entries that follow.
quantity: Ki (nM)

[[record]]
compound = "O=C(Nc1cnn(CC2CN(Cc3ccccc3)CCO2)c1)c1n[nH]c2cc(-c3cn[nH]c3)ccc12 (stereo not shown)"
number = 2.76

[[record]]
compound = "CN(C)CCC(c1cscn1)n1cc(NC(=O)c2n[nH]c3cc(-c4cn[nH]c4)ccc23)cn1 (stereo not shown) [Example 201]"
number = 2.89

[[record]]
compound = "CN(C)CC(c1ccccc1)n1cc(NC(=O)c2n[nH]c3ccccc23)cn1 (stereo not shown) [Example 276]"
number = 152

[[record]]
compound = "CN1CCC(Nc2ccc3c(C(=O)Nc4cnn(Cc5cccc(C#N)c5)c4)n[nH]c3c2)C1 (stereo not shown)"
number = 1400


###

# target: purified ITK (Invitrogen PV3875) (Homo sapiens, UniProt Q08881)
# Construct: purchased Invitrogen PV3875
# assayText: ITK peptide phosphorylation assay (Caliper LabChip or LCMS)
# Format: biochemical
# testContext: Table 2, Examples 1-140, class symbols
pKi: −log10 of the molar value.
quantity: pKi

[[record]]
molecule = "Nc1cc(Cn2cc(NC(=O)c3n[nH]c4cc(-c5cn[nH]c5)ccc34)cn2)ccn1 [Example 28]"
target = "purified ITK (Invitrogen PV3875) (Homo sapiens, UniProt Q08881)"
quantity = "pKi"
result = "7.00 to 9.00"

[[record]]
molecule = "O=C(Nc1cnn(Cc2nc3ccccc3s2)c1)c1n[nH]c2cc(-c3cn[nH]c3)ccc12 [Example 17]"
target = "purified ITK (Invitrogen PV3875) (Homo sapiens, UniProt Q08881)"
quantity = "pKi"
result = "7.00 to 9.00"

[[record]]
molecule = "N#Cc1cccc(Cn2cc(NC(=O)c3n[nH]c4ccc(-c5cn[nH]c5)cc34)cn2)c1 [Example 81]"
target = "purified ITK (Invitrogen PV3875) (Homo sapiens, UniProt Q08881)"
quantity = "pKi"
result = "7.00 to 9.00"

[[record]]
molecule = "O=C(Nc1cnn(Cc2csc(N3CCOCC3)n2)c1)c1n[nH]c2cc(-c3cn[nH]c3)ccc12 [Example 41]"
target = "purified ITK (Invitrogen PV3875) (Homo sapiens, UniProt Q08881)"
quantity = "pKi"
result = "7.00 to 9.00"

[[record]]
molecule = "N#Cc1cccc(Cn2cc(NC(=O)c3n[nH]c4ccc(-c5ccccc5)cc34)cn2)c1 [Example 79]"
target = "purified ITK (Invitrogen PV3875) (Homo sapiens, UniProt Q08881)"
quantity = "pKi"
result = "< 7.00"

[[record]]
molecule = "CN(C)CC(c1ccccc1)n1cc(NC(=O)c2n[nH]c3cc(-c4cn[nH]c4)ccc23)cn1 (centres unmarked) [Example 135]"
target = "purified ITK (Invitrogen PV3875) (Homo sapiens, UniProt Q08881)"
quantity = "pKi"
result = "9.00 to 11.00"

[[record]]
molecule = "O=C(Nc1cnn(Cc2cccc3cccnc23)c1)c1n[nH]c2cc(-c3cn[nH]c3)ccc12 [Example 9]"
target = "purified ITK (Invitrogen PV3875) (Homo sapiens, UniProt Q08881)"
quantity = "pKi"
result = "7.00 to 9.00"

[[record]]
molecule = "CCn1cc(NC(=O)c2n[nH]c3cc(-c4cn[nH]c4)ccc23)cn1 [Example 83]"
target = "purified ITK (Invitrogen PV3875) (Homo sapiens, UniProt Q08881)"
quantity = "pKi"
result = "7.00 to 9.00"

